Data origin: patent US20080089862A1

Each item that follows carries a reported β-gal: β-galactosidase units.
# target-entity: T1, MBP-scNS3 (Hepatitis C virus genotype 1b, UniProt P26663)
# T1 construct: made in house
# protocol-notes: ONPG hydrolysis (β-galactosidase) assay in genetic screening bacteria as indicator of NS3 activity
# Format: cell-based, Hepatitis C virus (HCV) genotype Ib
# condition-label: E. coli TG-I carrying pMGT14 and pMALc-NN-scFv; taken from FIG. 3A
# Description: NS3 catalysis inhibition assays. Blue colonies of E. coli TG-I cells carrying pMGT14 and pMALc-NN-scFv that were isolated by the genetic screening were grown in LB medium supplemented with 100 μg/ml ampicillin, 50 μg/ml kanamycin and induced with 0.2% (w/v) arabinose and 0.5 mM IPTG at O.D600nm=0.6 for 4 hr at 30° C. To measure the β-galactosidase activity an ONPG hydrolysis assay (Bach et al., 2001) was carried out. […]

INSERT INTO assay_data (molecule, test_value) VALUES
  ('scFv 11: NS3-inhibiting single-chain antibody, SEQ ID NO:10; MBP fusion SEQ ID NO:24 (protein, scFv inhibitor) scFv: EVQLQQSGAELVKPGASVKLSCTASGFNIKDYYMHWVKQRPGQGLEYIGRIYPGNGQTDYNGKFKGKATLTADKSSSTAYMQLSSLTSVDSAVYFCARGLFAYWGQGTLVTVSSGGGGSGGGGSGGGGSDVVMTQTPLSLPVSFGDQVSISCRSSQSLANSYGNTYLSWCLHKPGQSPQLLIYGISNRFSGVPDRFSGSGSGTDFTLKISTIKPEDLGMYYCLQGTHQPLTFGAGTKLEIKR', '60 β-galactosidase units');

Lab note: next molecule to report on.
Query: β-gal: β-galactosidase units; subject: scFv 10: NS3-inhibiting single-chain antibody, SEQ ID NO:11; MBP fusion SEQ ID NO:25 (protein, scFv inhibitor) scFv: QVQLQQSGAELMKPGASVKISCKATGYTFSNYWIEWVKQRPGHGLEWIGGILPGSGSTNYNEKFKGKATFTADTSSNTAYLQLSSLTSEDTAVYYCNADGPPGFDYWGQGTTLTVSSGGGGSGGGGSGGGGSDVLMTQTPLTLSVTIGQPASISCKSSQSLLDSDGKTYLNWLLQRPGQSPKRLIYLVSKLDSGVPDRFTGSGSGTDFTLKISRVEAEDLGVYYCFQGSHVPFTFGSGTKLEIKR 48 β-galactosidase units
